Source of measurements: the NIST ThermoML archive (doi:10.1016/j.jct.2008.04.002)

Catalogue of activity coefficient values
# assay comment: activity coefficient (dimensionless); of the first substance listed, at infinite dilution; xn = mol fraction of the nth substance listed
# experimental conditions: 308.15 K; Liquid; Chromatography; x1 = 0
Could you keep your reply to the number by itself?

Use the examples below as a reference point.
{"columns": ["compound", "activity coefficient"],
 "data": [
  ["CCCCCC [hexane] + CC(CC(C)(C)C)CP(=O)([O-])CC(C)CC(C)(C)C.CCCCCCCCCCCCCC[P+](CCCCCC)(CCCCCC)CCCCCC", 0.73],
  ["c1ccccc1 [benzene] + CC(CC(C)(C)C)CP(=O)([O-])CC(C)CC(C)(C)C.CCCCCCCCCCCCCC[P+](CCCCCC)(CCCCCC)CCCCCC", 0.47],
  ["C#CCCCCCC [1-octyne] + CC(CC(C)(C)C)CP(=O)([O-])CC(C)CC(C)(C)C.CCCCCCCCCCCCCC[P+](CCCCCC)(CCCCCC)CCCCCC", 0.33],
  ["C=CCCCC [hex-1-ene] + CC(CC(C)(C)C)CP(=O)([O-])CC(C)CC(C)(C)C.CCCCCCCCCCCCCC[P+](CCCCCC)(CCCCCC)CCCCCC", 0.65],
  ["CCCCCCCC [octane] + CC(CC(C)(C)C)CP(=O)([O-])CC(C)CC(C)(C)C.CCCCCCCCCCCCCC[P+](CCCCCC)(CCCCCC)CCCCCC", 0.82]
]}

Okay, now this compound:
For the compound shown here, C=CCCCCCC [oct-1-ene] + CC(CC(C)(C)C)CP(=O)([O-])CC(C)CC(C)(C)C.CCCCCCCCCCCCCC[P+](CCCCCC)(CCCCCC)CCCCCC , give the reported activity coefficient.
0.76
